Each recorded value in this set is attributed to ChEMBL document CHEMBL1795286.

Tested on: Staphylococcus aureus
EXPERIMENTAL_DETAILS: Antimicrobial activity against Staphylococcus aureus giorgio after 18 hrs by twofold agar dilution method
Assay type: functional
MIC: recorded values
MEASURED_ATTRIBUTE: MIC (µg/mL)

INSERT INTO results (structure_as_smiles, measured_attribute, output_unit, recorded_measurement) VALUES
  ('C[C@H](CO)[C@H]1CC[C@H]2[C@@H]3CC[C@H]4C[C@@H](NCCCNCCCCN)CC[C@]4(C)[C@H]3CC[C@]12C.Cl.Cl.Cl', 'MIC', 'µg/mL', 16),
  ('C[C@H](CO)[C@H]1CC[C@H]2[C@@H]3CC[C@@H]4C[C@@H](NCCCNCCCCNCCCN)CC[C@]4(C)[C@H]3CC[C@]12C.Cl.Cl.Cl.Cl', 'MIC', 'µg/mL', 4),
  ('C[C@H](CO)[C@H]1CC[C@H]2[C@@H]3CC[C@@H]4C[C@@H](NCCCNCCCCN)CC[C@]4(C)[C@H]3CC[C@]12C.Cl.Cl.Cl', 'MIC', 'µg/mL', 16),
  ('C[C@H](CO)[C@H]1CC[C@H]2[C@@H]3[C@H](N)C[C@H]4C[C@@H](NCCCNCCCCN)CC[C@]4(C)[C@H]3CC[C@]12C.Cl.Cl.Cl', 'MIC', 'µg/mL', 32),
  ('C[C@H](CO)[C@H]1CC[C@H]2[C@@H]3CC[C@H]4C[C@H](NCCCNCCCCNCCCN)CC[C@]4(C)[C@H]3CC[C@]12C.Cl.Cl.Cl.Cl', 'MIC', 'µg/mL', 16),
  ('C[C@H](CO)[C@H]1CC[C@H]2[C@@H]3CC[C@@H]4C[C@H](NCCCNCCCCNCCCN)CC[C@]4(C)[C@H]3CC[C@]12C.Cl.Cl.Cl.Cl', 'MIC', 'µg/mL', 32),
  ('C[C@H](CO)[C@H]1CC[C@H]2[C@@H]3[C@H](F)C[C@H]4C[C@@H](NCCCNCCCCN)CC[C@]4(C)[C@H]3CC[C@]12C.Cl.Cl.Cl', 'MIC', 'µg/mL', 8),
  ('C[C@H](CO)[C@H]1CC[C@H]2[C@@H]3CC[C@H]4C[C@H](NCCCNCCCCN)CC[C@]4(C)[C@H]3CC[C@]12C.Cl.Cl.Cl', 'MIC', 'µg/mL', 8),
  ('C[C@H](CO)[C@H]1CC[C@H]2[C@@H]3CC[C@H]4C[C@@H](NCCCNCCCCNCCCN)CC[C@]4(C)[C@H]3CC[C@]12C.Cl.Cl.Cl.Cl', 'MIC', 'µg/mL', 32),
  ('C[C@H](CO)[C@H]1CC[C@H]2[C@@H]3CC[C@@H]4C[C@H](NCCCNCCCCN)CC[C@]4(C)[C@H]3CC[C@]12C.Cl.Cl.Cl', 'MIC', 'µg/mL', 32),
  ('C[C@H](CO)[C@H]1CC[C@H]2[C@@H]3[C@H](O)C[C@H]4C[C@@H](NCCCNCCCCN)CC[C@]4(C)[C@H]3CC[C@]12C.Cl.Cl.Cl', 'MIC', 'µg/mL', 32);

----------
Tested on: Micrococcus luteus
EXPERIMENTAL_DETAILS: Antimicrobial activity against Micrococcus luteus ATCC 9341 after 18 hrs by twofold agar dilution method
Format: functional
MEASUREMENT_CONTEXT: ATCC 9341, 18 h, read-out: MIC
The entries below come with measured MIC values attached.
MEASURED_ATTRIBUTE: MIC (µg/mL)

INSERT INTO results (structure_as_smiles, recorded_measurement) VALUES
  ('C[C@H](CO)[C@H]1CC[C@H]2[C@@H]3CC[C@H]4C[C@@H](NCCCNCCCCNCCCN)CC[C@]4(C)[C@H]3CC[C@]12C.Cl.Cl.Cl.Cl', 32),
  ('C[C@H](CO)[C@H]1CC[C@H]2[C@@H]3[C@H](N)C[C@H]4C[C@@H](NCCCNCCCCN)CC[C@]4(C)[C@H]3CC[C@]12C.Cl.Cl.Cl', 16),
  ('C[C@H](CO)[C@H]1CC[C@H]2[C@@H]3[C@H](F)C[C@H]4C[C@@H](NCCCNCCCCN)CC[C@]4(C)[C@H]3CC[C@]12C.Cl.Cl.Cl', 16);

----------
Test system: Serratia marcescens
EXPERIMENTAL_DETAILS: Antimicrobial activity against Serratia marcescens 1826E after 18 hrs by twofold agar dilution method
Assay type: functional
# Lookup of reported MIC keyed by entry
MEASURED_ATTRIBUTE: MIC

INSERT INTO results (structure_as_smiles, tested_system, recorded_measurement) VALUES
  ('C[C@H](CO)[C@H]1CC[C@H]2[C@@H]3CC[C@@H]4C[C@@H](NCCCNCCCCNCCCN)CC[C@]4(C)[C@H]3CC[C@]12C.Cl.Cl.Cl.Cl', 'Serratia marcescens', '> 32 µg/mL'),
  ('C[C@H](CO)[C@H]1CC[C@H]2[C@@H]3[C@H](N)C[C@H]4C[C@@H](NCCCNCCCCN)CC[C@]4(C)[C@H]3CC[C@]12C.Cl.Cl.Cl', 'Serratia marcescens', '> 32 µg/mL'),
  ('C[C@H](CO)[C@H]1CC[C@H]2[C@@H]3[C@H](F)C[C@H]4C[C@@H](NCCCNCCCCN)CC[C@]4(C)[C@H]3CC[C@]12C.Cl.Cl.Cl', 'Serratia marcescens', '> 32 µg/mL'),
  ('C[C@H](CO)[C@H]1CC[C@H]2[C@@H]3CC[C@H]4C[C@H](NCCCNCCCCN)CC[C@]4(C)[C@H]3CC[C@]12C.Cl.Cl.Cl', 'Serratia marcescens', '> 32 µg/mL'),
  ('C[C@H](CO)[C@H]1CC[C@H]2[C@@H]3CC[C@@H]4C[C@@H](NCCCNCCCCN)CC[C@]4(C)[C@H]3CC[C@]12C.Cl.Cl.Cl', 'Serratia marcescens', '> 32 µg/mL'),
  ('C[C@H](CO)[C@H]1CC[C@H]2[C@@H]3[C@H](O)C[C@H]4C[C@@H](NCCCNCCCCN)CC[C@]4(C)[C@H]3CC[C@]12C.Cl.Cl.Cl', 'Serratia marcescens', '> 32 µg/mL'),
  ('C[C@H](CO)[C@H]1CC[C@H]2[C@@H]3CC[C@@H]4C[C@H](NCCCNCCCCNCCCN)CC[C@]4(C)[C@H]3CC[C@]12C.Cl.Cl.Cl.Cl', 'Serratia marcescens', '> 32 µg/mL'),
  ('C[C@H](CO)[C@H]1CC[C@H]2[C@@H]3CC[C@@H]4C[C@H](NCCCNCCCCN)CC[C@]4(C)[C@H]3CC[C@]12C.Cl.Cl.Cl', 'Serratia marcescens', '> 32 µg/mL'),
  ('C[C@H](CO)[C@H]1CC[C@H]2[C@@H]3CC[C@H]4C[C@@H](NCCCNCCCCNCCCN)CC[C@]4(C)[C@H]3CC[C@]12C.Cl.Cl.Cl.Cl', 'Serratia marcescens', '> 32 µg/mL'),
  ('C[C@H](CO)[C@H]1CC[C@H]2[C@@H]3CC[C@H]4C[C@@H](NCCCNCCCCN)CC[C@]4(C)[C@H]3CC[C@]12C.Cl.Cl.Cl', 'Serratia marcescens', '> 32 µg/mL'),
  ('C[C@H](CO)[C@H]1CC[C@H]2[C@@H]3CC[C@H]4C[C@H](NCCCNCCCCNCCCN)CC[C@]4(C)[C@H]3CC[C@]12C.Cl.Cl.Cl.Cl', 'Serratia marcescens', '> 32 µg/mL');

----------
Tested on: Escherichia coli
EXPERIMENTAL_DETAILS: Antimicrobial activity against Escherichia coli ATCC 25922 after 18 hrs by twofold agar dilution method
Type: functional
MEASUREMENT_CONTEXT: ATCC 25922, 18 h, read-out: MIC
Let's look at some compounds and their measured MIC.
MEASURED_ATTRIBUTE: MIC (µg/mL)

INSERT INTO results (structure_as_smiles, output_unit, inequality_sign, recorded_measurement) VALUES
  ('C[C@H](CO)[C@H]1CC[C@H]2[C@@H]3CC[C@H]4C[C@H](NCCCNCCCCN)CC[C@]4(C)[C@H]3CC[C@]12C.Cl.Cl.Cl', 'µg/mL', '=', 32),
  ('C[C@H](CO)[C@H]1CC[C@H]2[C@@H]3CC[C@@H]4C[C@@H](NCCCNCCCCNCCCN)CC[C@]4(C)[C@H]3CC[C@]12C.Cl.Cl.Cl.Cl', 'µg/mL', '=', 32),
  ('C[C@H](CO)[C@H]1CC[C@H]2[C@@H]3CC[C@@H]4C[C@@H](NCCCNCCCCN)CC[C@]4(C)[C@H]3CC[C@]12C.Cl.Cl.Cl', 'µg/mL', '<', 32);

----------
Tested on: Klebsiella aerogenes
EXPERIMENTAL_DETAILS: Antimicrobial activity against Klebsiella aerogenes harboring beta-lactamase SHV-1 1976E mutant after 18 hrs by twofold agar dilution method
Assay type: functional
# MIC per record follows
MEASURED_ATTRIBUTE: MIC

INSERT INTO measurements (structure_as_smiles, tested_system, measured_attribute, recorded_measurement) VALUES
  ('C[C@H](CO)[C@H]1CC[C@H]2[C@@H]3[C@H](N)C[C@H]4C[C@@H](NCCCNCCCCN)CC[C@]4(C)[C@H]3CC[C@]12C.Cl.Cl.Cl', 'Klebsiella aerogenes', 'MIC', '> 32 µg/mL'),
  ('C[C@H](CO)[C@H]1CC[C@H]2[C@@H]3CC[C@H]4C[C@@H](NCCCNCCCCN)CC[C@]4(C)[C@H]3CC[C@]12C.Cl.Cl.Cl', 'Klebsiella aerogenes', 'MIC', '> 32 µg/mL'),
  ('C[C@H](CO)[C@H]1CC[C@H]2[C@@H]3CC[C@H]4C[C@H](NCCCNCCCCN)CC[C@]4(C)[C@H]3CC[C@]12C.Cl.Cl.Cl', 'Klebsiella aerogenes', 'MIC', '> 32 µg/mL');
